These entries and their values trace back to the supplement of paper PMC6965134.

# method: TIMS collisional cross section (CCS, N2) of the lipid ion; higher = larger ion cross section
# conditionInfo: sample type: HeLa; ionization mode: positive; one isomer drawn
Note to self: values exactly at 300 Å² are criterion met. So TIMS collisional cross section at or above 300 Å² is criterion met, below is criterion not met.

>  <compound>
CCCCCC/C=C\CCCCCCCC(=O)O[C@@H](CO)COC(=O)CCCCCCCCCCCCC [DG 14:0_16:1_0:0] (ion (formula + adduct): [C33H62O5+NH4] 1+)

>  <group>
criterion not met

$$$$
>  <compound>
CCCCC/C=C\C/C=C\C/C=C\CCCCCCC(=O)O[C@H](CO/C=C\CCCCCCCCCCCCCCCCCC)COP(=O)(O)OCCN [PE P- 20:0@_20:3] (ion (formula + adduct): [C45H84NO7P+H] 1+)

>  <group>
criterion not met

$$$$
>  <compound>
CCCCCC/C=C\CCCCCCCC(=O)OC[C@H](COC(=O)CCCCCCC/C=C\CCCCCCCC)OC(=O)CCCCCCC/C=C\CCCCCC [TG 16:1_16:1_18:1] (ion (formula + adduct): [C53H96O6+NH4] 1+)

>  <group>
criterion met

$$$$
>  <compound>
CCCCC/C=C\C/C=C\CCCCCCCC(=O)O[C@H](COC(=O)CCCCCCC/C=C\CCCCCCCC)COP(=O)(O)OCCN [PE 18:1_18:2] (ion (formula + adduct): [C41H76NO8P+Na] 1+)

>  <group>
criterion not met

$$$$

###

// reported TIMS collisional cross section per item
# method: TIMS collisional cross section (CCS, N2) of the lipid ion; higher = larger ion cross section
# conditionInfo: sample type: HeLa; ionization mode: positive; one isomer drawn

>  <molecule>
CC/C=C\C/C=C\C/C=C\C/C=C\C/C=C\C/C=C\CCC(=O)O[C@H](CO/C=C\CCCCCCCCCCCCCC)COP(=O)([O-])OCC[N+](C)(C)C [PC P- 16:0@_22:6] (ion (formula + adduct): [C46H80NO7P+H] 1+)

>  <TIMS collisional cross section (Å²)>
291.3

$$$$
>  <molecule>
CCCCCCC/C=C\CCCCCCCC(=O)O[C@H](COCCCCCCCCCCCCCCCC)COP(=O)([O-])OCC[N+](C)(C)C [PC O- 16:0@_17:1] (ion (formula + adduct): [C41H82NO7P+H] 1+)

>  <TIMS collisional cross section (Å²)>
287.7

$$$$
>  <molecule>
CCCCC/C=C\C/C=C\C/C=C\C/C=C\C/C=C\CCC(=O)O[C@H](COCCCCCCCCCCCCCCCC)COP(=O)(O)OCCN [PE O- 16:0@_22:5] (ion (formula + adduct): [C43H78NO7P+H] 1+)

>  <TIMS collisional cross section (Å²)>
281.6

$$$$
>  <molecule>
CC/C=C\C/C=C\C/C=C\C/C=C\C/C=C\CCCC(=O)O[C@H](COC(=O)CCC/C=C\C/C=C\C/C=C\C/C=C\CCCCC)COP(=O)(O)OCCN [PE 20:4_20:5] (ion (formula + adduct): [C45H72NO8P+H] 1+)

>  <TIMS collisional cross section (Å²)>
279.1

$$$$
>  <molecule>
CCCCCCCCCCCCC/C=C/[C@@H](O)[C@H](CO[C@@H]1O[C@H](CO)[C@@H](O)C(O)C1O)NC(=O)CCCCCCCCCCCCCCCCCCCCCC (some centres undefined) [GlcCer d18:1_23:0@] (ion (formula + adduct): [C47H91NO8+H] 1+)

>  <TIMS collisional cross section (Å²)>
301.5

$$$$
>  <molecule>
CCCCCCCCCCCCCCC(=O)OC[C@@H](COC(=O)CCCCCCCCCCCCC)OC(=O)CCCCCCCCCCCCC [TG 14:0_14:0_15:0] (ion (formula + adduct): [C46H88O6+NH4] 1+)

>  <TIMS collisional cross section (Å²)>
297.1

$$$$
>  <molecule>
CC/C=C\C/C=C\C/C=C\C/C=C\C/C=C\CCCC(=O)O[C@@H](CO)COC(=O)CCCCCCC/C=C\CCCCCCCC [DG 18:1_20:5_0:0] (ion (formula + adduct): [C41H68O5+NH4] 1+)

>  <TIMS collisional cross section (Å²)>
263.8

$$$$
>  <molecule>
CCCCCCCC/C=C\CCCCCCCC(=O)OC[C@H](CO)OC(=O)CCCCCCC/C=C\CCCCCCCC [DG 18:1_18:1_0:0] (ion (formula + adduct): [C39H72O5+NH4] 1+)

>  <TIMS collisional cross section (Å²)>
265.2

$$$$
>  <molecule>
CC/C=C\C/C=C\C/C=C\CCCCCCCC(=O)OC[C@@H](COC(=O)CCCCCCC/C=C\CCCCCC)OC(=O)CCCCCCC/C=C\CCCCCCC [TG 16:1_17:1_18:3] (ion (formula + adduct): [C54H94O6+NH4] 1+)

>  <TIMS collisional cross section (Å²)>
314.8

$$$$
